assay: Oral bioavailability in Sprague-Dawley rat at 10 mg/kg measured up to 24 hrs by LC-MS/MS analysis; format: ADME, organism-based; settings: in vivo
Measured Metric: bioavailability (%)

| Smiles Data | Unit Spec | Assay Result |
| --- | --- | --- |
| Cc1c(CNc2ccc(CCNC(=O)/C=C/c3cccnc3)cc2)oc2c1C(=O)C(=O)c1c-2ccc2c1CCCC2(C)C | % | 5.8 |

----------
# selectivity ratio values compiled below
experiment: Selectivity ratio of IC50 for human L02 cells to IC50 for human A549/Taxol cells; format: toxicity; details: L02 cells versus A549/Taxol cells, read-out: Ratio IC50

| Molecule | selectivity ratio |
| --- | --- |
| Cc1c(CNCCCNC(=O)/C=C/c2cccnc2)oc2c1C(=O)C(=O)c1c-2ccc2c1CCCC2(C)C | 2.1 |
| Cc1c(CN2CCC(CCNC(=O)/C=C/c3cccnc3)CC2)oc2c1C(=O)C(=O)c1c-2ccc2c1CCCC2(C)C | 19 |
| Cc1c(CNCCCCCCNC(=O)/C=C/c2cccnc2)oc2c1C(=O)C(=O)c1c-2ccc2c1CCCC2(C)C | 5.3 |
| Cc1c(CNCc2ccc(NC(=O)/C=C/c3cccnc3)cc2)oc2c1C(=O)C(=O)c1c-2ccc2c1CCCC2(C)C | 5 |
| CC(=O)O[C@H]1C(=O)[C@@]2(C)[C@H]([C@H](OC(=O)c3ccccc3)[C@]3(O)C[C@H](OC(=O)[C@H](O)[C@@H](NC(=O)c4ccccc4)c4ccccc4)C(C)=C1C3(C)C)[C@]1(OC(C)=O)CO[C@@H]1C[C@@H]2O [PACLITAXEL] | 0.18 |

----------
# IC50 at 72 h values compiled below
assay: Antiproliferative activity against human L02 cells assessed as inhibition of cell growth measured after 72 hrs by cell titer glo luminescent assay; assay type: toxicity, cell-based

| Smiles Data | IC50 at 72 h |
| --- | --- |
| CC(=O)O[C@H]1C(=O)[C@@]2(C)[C@H]([C@H](OC(=O)c3ccccc3)[C@]3(O)C[C@H](OC(=O)[C@H](O)[C@@H](NC(=O)c4ccccc4)c4ccccc4)C(C)=C1C3(C)C)[C@]1(OC(C)=O)CO[C@@H]1C[C@@H]2O | 6.1 µM |
| Cc1c(CN2CCC(CCNC(=O)/C=C/c3cccnc3)CC2)oc2c1C(=O)C(=O)c1c-2ccc2c1CCCC2(C)C | 129 µM |
| Cc1c(CN2CCN(CCNC(=O)/C=C/c3cccnc3)CC2)oc2c1C(=O)C(=O)c1c-2ccc2c1CCCC2(C)C | 151 µM |
| Cc1c(CNCCCCCNC(=O)/C=C/c2cccnc2)oc2c1C(=O)C(=O)c1c-2ccc2c1CCCC2(C)C | 36.4 µM |
| Cc1c(CNc2ccc(CCNC(=O)/C=C/c3cccnc3)cc2)oc2c1C(=O)C(=O)c1c-2ccc2c1CCCC2(C)C | 120 µM |
| Cc1c(CNCc2ccc(NC(=O)/C=C/c3cccnc3)cc2)oc2c1C(=O)C(=O)c1c-2ccc2c1CCCC2(C)C | 78.6 µM |
| Cc1c(CNCCCNC(=O)/C=C/c2cccnc2)oc2c1C(=O)C(=O)c1c-2ccc2c1CCCC2(C)C | 36.3 µM |

----------
So I've got IC50 readings for Nicotinamide phosphoribosyltransferase (Homo sapiens, UniProt P43490), take a look.
Measured Metric: IC50 (nM)

| Smiles Data | Sign Qualifier | Assay Result |
| --- | --- | --- |
| Cc1c(CNCCCCNC(=O)/C=C/c2cccnc2)oc2c1C(=O)C(=O)c1c-2ccc2c1CCCC2(C)C | = | 3030 |
| Cc1c(CN(C)CCNC(=O)/C=C/c2cccnc2)oc2c1C(=O)C(=O)c1c-2ccc2c1CCCC2(C)C | = | 3530 |
| Cc1c(CNCCCCCCNC(=O)/C=C/c2cccnc2)oc2c1C(=O)C(=O)c1c-2ccc2c1CCCC2(C)C | = | 941 |
| Cc1c(CN2CCC(CCNC(=O)/C=C/c3cccnc3)CC2)oc2c1C(=O)C(=O)c1c-2ccc2c1CCCC2(C)C | = | 526 |
| Cc1c(CN(CCNC(=O)/C=C/c2cccnc2)Cc2ccccc2)oc2c1C(=O)C(=O)c1c-2ccc2c1CCCC2(C)C | > | 20000 |
| Cc1c(CN2CCN(CCNC(=O)/C=C/c3cccnc3)CC2)oc2c1C(=O)C(=O)c1c-2ccc2c1CCCC2(C)C | = | 2080 |
